Entry source: PubChem BioAssay (NCI)

Listing: TGI of selected compounds
System: UACC-62 melanoma
ASSAY: NCI tumour cell line growth inhibition, 48 h

Sample answers from the record:
{"COMPOUND": "CC1CC(=O)C(C(O)CC2CC(=O)N(c3ccccc3)C(=O)C2)C(C)C1 (stereo unspecified)", "OBS VALUE": "> 100 µM"}
{"COMPOUND": "C=CCSc1nn(CC=C)cc2ncnc1-2", "OBS VALUE": "> 100 µM"}
{"COMPOUND": "CCOC(=O)Cn1nc2ccc(Nc3nc4ccccc4nc3C(=O)OCC)cc2n1", "OBS VALUE": "> 100 µM"}

Request: # input compound: COC(=O)C(C(=O)C(=O)Nc1ccccc1OC)c1csc(-n2nc(-c3ccccc3)cc2-c2ccccc2)n1 (stereo unspecified) ; wanted: its TGI
Response: > 100 µM

Request: Form field: reported TGI of CC1=CC(C)C(O)C(C)/C=C/C(O)C/C=C(/C)C(=O)CC(O)C(C)\C=C/C=C/C=C\C(=O)NC2=C(O)c3cc(C)c(O)c(c3C(=O)C2=O)C1=O (stereo unspecified)
Response: > 100 µM

Request: Can you look up the measured TGI of CC(C)(C)OC(=O)C1/C(=C/CO)CN1C(=O)OC(C)(C)C (stereo unspecified) for me?
Response: > 100 µM

Request: Quick one: TGI of NC(C(=O)O)C(N)C(=O)O (stereo unspecified) ?
Response: > 100 µM

Request: Look up TGI for this compound: CC(=O)CN=C(C)NNc1ccc([N+](=O)[O-])cc1[N+](=O)[O-]
Response: > 100 µM

Request: Would you kindly share the measured TGI for CC(C)CCNC(=O)c1ccc(CNC(=O)/C=C/c2ccc(-c3ccccc3[N+](=O)[O-])o2)cc1 ?
Response: > 100 µM

Request: Name the recorded TGI for COc1cc2cc(C(=O)N3CC(COS(C)(=O)=O)c4c3cc([N+](=O)[O-])c3ccccc43)[nH]c2c(OC)c1OC (stereo unspecified) .
Response: > 31.6 µM

Request: Looking for the measured TGI of CNC(=O)OCc1nc(S(C)=O)n(C)c1COC(=O)NC (stereo unspecified) , can you help?
Response: > 65.9 µM

Request: Give its TGI value. Item: Oc1cccc(C2SCc3nc4ccccc4n32)c1 (stereo unspecified)
Response: > 100 µM

Request: Item under review: COC(CNC(=O)C(C)NC(=O)C(C)NC(=O)c1ccccc1)OC (stereo unspecified) . Reported TGI?
Response: > 100 µM

Request: Need TGI of CC(C)(C)OC(=O)C(C1NC(C(=O)O)C(C)(C)S1)N1C(=O)c2ccccc2C1=O (stereo unspecified) , thanks.
Response: > 100 µM

Request: Which TGI reading was recorded for the compound CC(C)(C)C1CCC2c3c([nH]c4ccccc34)C3C(=O)N(c4ccc(Br)cc4)C(=O)C3C2C1 (stereo unspecified) ?
Response: > 100 µM

Request: Need TGI, item Cc1ccc(S(=O)(=O)n2ccn3c(=O)cc(C)nc23)cc1
Response: > 10 µM

---

Test system: TK-10 renal
ASSAY: NCI tumour cell line growth inhibition, 48 h
EXPERIMENTAL ENDPOINT: TGI

Use these answered entries as a reference point.
{"COMPOUND": "CNC(Cc1ccccc1)c1cccc(OC)c1O (stereo not given)", "TGI": "> 100 µM"}
{"COMPOUND": "CC[C@H](CCCCC1CC[C@@H]2CC(=O)C[C@H]12)OC (stereo not given in full)", "TGI": "> 100 µM"}
{"COMPOUND": "C[C@H](CCc1nc(C#N)c(N)o1)[C@H]1CC[C@H]2[C@@H]3[C@@H](O)CC4C[C@@H](O)CC[C@]4(C)[C@H]3C[C@@H](O)[C@]12C (stereo not given in full)", "TGI": "> 68.1 µM"}

Request: TGI for CCOC(=O)c1sc2nc(SC)nc(Nc3ccc(OC)c(OC)c3)c2c1N ?
Response: 76.4 µM

Request: Requested read-out: TGI. Entry: CC1=COC2=C(C)C(=O)C(=O)c3c(C)ccc1c32
Response: > 92.6 µM

Request: Consider the compound shown here: CC(C)(C)SC1=CCC[C@@H](P(=O)(c2ccccc2)c2ccccc2)[C@@H]2CCC[C@@H]12 What is its recorded TGI?
Response: 32.3 µM

Request: // TGI lookup, key: Cc1ccc(C2SC(N)=Nc3c2c(C)nn3C(=O)c2ccncc2)cc1 (stereo not given)
Response: > 10 µM

Request: TGI lookup needed for CC(C)(C)C1CCC2c3c([nH]c4ccccc34)C3C(=O)N(c4ccc(Br)cc4)C(=O)C3C2C1 (stereo not given) , thanks.
Response: 42 µM

Request: Name the recorded TGI for COc1cc(OC)c(/C=N/N=C(\N)NO)c(OC)c1 .
Response: > 100 µM

Request: Would you mind telling me what TGI value was observed for CN/N=C(\C)CC(=O)Nc1cccc(Cl)c1C ?
Response: > 100 µM

---

Tested on: MOLT-4 leukemia
ASSAY: NCI tumour cell line growth inhibition, 48 h
EXPERIMENTAL ENDPOINT: TGI

Record excerpt, results attached:
{"COMPOUND": "COC(=O)C(C(=O)C(=O)Nc1ccccc1OC)c1csc(-n2nc(-c3ccccc3)cc2-c2ccccc2)n1 (stereo not drawn)", "TARGET OR TEST SYSTEM": "MOLT-4 leukemia", "EXPERIMENTAL ENDPOINT": "TGI", "OBS VALUE": "> 100 µM"}
{"COMPOUND": "Cc1ccc(NC(=O)SCCC(=O)O)cc1NC(=O)SCCC(=O)O", "TARGET OR TEST SYSTEM": "MOLT-4 leukemia", "EXPERIMENTAL ENDPOINT": "TGI", "OBS VALUE": "> 100 µM"}

Moving on to another compound below.
Request: Fill blank: measured TGI of the compound Nc1ccc(-c2ccc(-c3nc4ccccc4[nH]3)cc2)cc1 is ____.
Response: > 58.2 µM

---

System: NCI-H522 lung
ASSAY: NCI tumour cell line growth inhibition, 48 h
Quick list: TGI per entry.

Example entries and their recorded answers appear below.
{"COMPOUND": "Nc1nc(Cl)cc(Nc2ccc3c(c2)CCC3)n1", "OBS VALUE": "> 100 µM"}
{"COMPOUND": "NC1=C(c2nc(-c3cc4ccccc4oc3=O)cs2)C(c2ccco2)c2c(c3ccccc3oc2=O)O1 (stereo not given)", "OBS VALUE": "> 150 µg/mL"}
{"COMPOUND": "Nc1cc(C(F)F)c(-c2nc(N3[C@@H]4CC[C@H]3COC4)nc(N3[C@@H]4CC[C@H]3COC4)n2)cn1", "OBS VALUE": "> 100 µM"}
{"COMPOUND": "O=C1CCC(=O)c2cc(Br)ccc2N1", "OBS VALUE": "> 100 µM"}

Kindly consider the entry below.
Request: Can you look up the measured TGI of O=C(O)C1Cc2nc[nH]c2CN1 (stereo not given) for me?
Response: > 100 µM

---

System: SNB-75 CNS
ASSAY: NCI tumour cell line growth inhibition, 48 h
Attribute: TGI

{"COMPOUND": "Nc1nc(Cl)c2ncn(Cc3ccccc3CCl)c2n1", "OBS VALUE": "23.8 µM"}
{"COMPOUND": "C=C(CO)CC(O)c1ccccc1 (stereo unspecified)", "OBS VALUE": "> 100 µM"}
{"COMPOUND": "C[C@]12CC[C@@H]3c4ccc(O)cc4CC[C@H]3[C@@H]1CC[C@@H]2NS(=O)(=O)c1cccc(Br)c1", "OBS VALUE": "13.5 µM"}
{"COMPOUND": "CC(C)(C)OC(=O)C(C1NC(C(=O)O)C(C)(C)S1)N1C(=O)c2ccccc2C1=O (stereo unspecified)", "OBS VALUE": "> 100 µM"}
{"COMPOUND": "CCOc1ccc(N=Cc2cc(OC)c(OC)c(OC)c2)cc1", "OBS VALUE": "> 100 µM"}

API: the following record is the query input.
Request: For Cc1ccc(S(=O)(=O)C2=c3ncccc3=C3C(=O)c4ccccc4C(=O)C32)cc1 (stereo unspecified) , what is its reported TGI?
Response: > 100 µM

---

Test system: RPMI-8226 leukemia
ASSAY: NCI tumour cell line growth inhibition, 48 h
EXPERIMENTAL ENDPOINT: TGI

{"COMPOUND": "O=C(Nc1cc(C(F)(F)F)ccc1Cl)C(=O)C(C(=O)c1ccc2ccccc2c1)C1OC(=O)c2ccccc21 (stereo not drawn)", "TGI": "> 54.5 µM"}
{"COMPOUND": "COC1OC(C)C(OC(=O)C(C)(C)C)C(C)(O)C1O (stereo not drawn)", "TGI": "> 100 µM"}

Turning to the following compound.
Request: Lab note: need TGI with RPMI-8226 leukemia for entry CC1=CCC2(C#N)CCC1C2=O (stereo not drawn) , please look it up.
Response: > 100 µM
